Values compiled from patent US20230357429A1.

Target: T1, Peptide-33 (cysteine pairing not given here; also: biotinylated, site not given here)
T1 peptide: PDFCYMYNWPVCVT
Experiment: ELISA, Fab on captured biotin-peptide
Where no end group is shown, it is not given here.
For each record, write down the corresponding pEC50.
By convention, pEC50 is the negative base-10 log of a molar concentration.

TBD-21 (HC F108A) (Fab, V domains shown, Fab; also called HC F108A mutant) VH: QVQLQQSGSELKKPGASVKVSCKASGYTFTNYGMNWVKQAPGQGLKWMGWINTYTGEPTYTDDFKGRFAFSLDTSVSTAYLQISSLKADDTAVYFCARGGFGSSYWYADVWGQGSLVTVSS VL: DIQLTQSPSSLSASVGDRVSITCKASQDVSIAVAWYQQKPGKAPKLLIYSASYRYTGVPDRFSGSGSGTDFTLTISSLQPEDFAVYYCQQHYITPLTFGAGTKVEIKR has a reported pEC50 of 7.64

TBD-6 (LC I93A) (Fab, V domains shown, Fab; also called LC I93A mutant) VH: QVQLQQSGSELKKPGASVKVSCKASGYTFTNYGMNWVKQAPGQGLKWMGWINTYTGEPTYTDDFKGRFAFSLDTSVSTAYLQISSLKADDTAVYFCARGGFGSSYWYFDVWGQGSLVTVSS VL: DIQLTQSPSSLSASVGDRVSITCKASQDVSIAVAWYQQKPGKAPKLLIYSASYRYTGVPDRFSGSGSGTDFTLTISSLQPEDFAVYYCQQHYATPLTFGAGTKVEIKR has a reported pEC50 of 8.02

TBD-1 wt (Fab, V domains shown, Fab; the heavy chain entry is VH-CH1; also called wild-type anti-TROP2 Fab (hRS7); TROP2 Fab) VH: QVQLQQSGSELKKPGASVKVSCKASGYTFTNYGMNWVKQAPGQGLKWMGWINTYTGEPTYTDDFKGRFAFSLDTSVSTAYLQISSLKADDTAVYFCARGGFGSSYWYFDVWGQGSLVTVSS VL: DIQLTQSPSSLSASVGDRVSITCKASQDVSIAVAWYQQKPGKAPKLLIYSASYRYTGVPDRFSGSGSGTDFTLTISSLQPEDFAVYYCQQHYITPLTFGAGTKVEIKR has a reported pEC50 of 7.53
